Origin of the recorded values: patent US12624034B2

# tested.target: AKT2 (Homo sapiens)
# Construct: expressed in transfected cells; host or cells: HEK293
# Sequence (P31751 whole entry): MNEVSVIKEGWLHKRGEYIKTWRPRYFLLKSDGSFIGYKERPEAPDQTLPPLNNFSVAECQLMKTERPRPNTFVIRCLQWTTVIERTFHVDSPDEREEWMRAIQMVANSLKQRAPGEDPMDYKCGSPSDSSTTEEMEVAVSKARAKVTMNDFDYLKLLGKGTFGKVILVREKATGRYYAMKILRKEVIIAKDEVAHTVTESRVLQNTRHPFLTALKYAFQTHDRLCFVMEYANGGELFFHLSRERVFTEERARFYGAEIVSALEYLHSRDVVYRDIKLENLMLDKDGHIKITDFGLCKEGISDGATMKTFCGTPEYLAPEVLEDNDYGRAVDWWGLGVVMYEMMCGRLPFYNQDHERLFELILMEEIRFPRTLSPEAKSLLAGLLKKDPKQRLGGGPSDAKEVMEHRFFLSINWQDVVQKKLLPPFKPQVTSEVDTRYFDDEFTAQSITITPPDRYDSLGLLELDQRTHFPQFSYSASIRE
# method.summary: Live cell AKT2 target engagement by NanoBRET competitive probe displacement in HEK293 cells
# Format: binding
# experimental.conditions: NanoBRET live cell target engagement, HEK293 cells, 2 h at 37° C.; read-out: AKT2 IC50
Assign labels as follows, please: yes (1) for IC50 below 200 nM; no (0) for IC50 equal to or exceeding 200 nM.

The examples below pair each entry with its known result.
is_below(IC50, 200 nM) for CN1CC(Oc2cc(C(=O)N[C@H]3CCc4cc(-n5c(-c6cccnc6N)nc6ccc(-n7cccn7)nc65)ccc43)ccn2)C1 [Compound 179] ?
no (0)

Regarding Cn1c(=O)[nH]c2ccc(C(=O)N[C@H]3CCc4cc(-n5c(-c6cccnc6N)nc6ccc(-n7cccn7)nc65)ccc43)cc21 [Compound 230] , kindly confirm whether its IC50 is beneath 200 nM.
yes (1)

Continuing:
Consider COc1cc(C(=O)N[C@H]2CCc3cc(-n4c(-c5cccnc5N)nc5ccc(-n6nccn6)nc54)ccc32)cnc1C(F)F [Compound 364] . Does its IC50 lie strictly below 200 nM?
no (0)

Bench note: check whether Nc1ncccc1-c1nc2ccc(-n3cccn3)nc2n1-c1ccc2c(c1)CC[C@@H]2NC(=O)c1cc2n(n1)CCO2 [Compound 242] shows IC50 below 200 nM
no (0)

Would you kindly verify if IC50 of CNC(=O)c1cccc(C(=O)N[C@H]2CCc3cc(-n4c(-c5cccnc5N)nc5ccc(-n6cccn6)nc54)ccc32)c1 [Compound 292] is strictly less than 200 nM?
yes (1)

Problem: For the compound Nc1ncccc1-c1nc2ccc(-n3cccn3)nc2n1-c1ccc2c(c1)CC[C@@H]2NC(=O)c1ccnc(OC(F)(F)F)c1 [Compound 64] , is IC50 under 200 nM?
yes (1)

====

Readings of IC50 for the listed compounds
# tested.target: AKT1 WT (Homo sapiens)
# Construct: expressed in transfected cells; host or cells: HEK293
# method.summary: Live cell AKT1 WT target engagement by NanoBRET competitive probe displacement in HEK293 cells
# Format: binding
# experimental.conditions: NanoBRET competitive probe displacement, live HEK293 cells, 2 h at 37° C.; read-out: AKT1 WT IC50
Hi! Could you send only the number? It should be in µM, unit omitted.

Recorded IC50, per entry:
Give its IC50 value. Item: `COc1ncn(-c2ccc3nc(-c4cccnc4N)n(-c4ccc5c(c4)CC[C@@H]5NC(=O)c4ccc(C)nc4)c3n2)n1`
0.0523

Requested field: IC50. Item: `Nc1ncccc1-c1nc2ccc(C#CC3CC3)nc2n1-c1ccc2c(c1)CC[C@@H]2NC1CN(C(=O)C2CC2)C1`
0.0969

Next:
So what does the record say about IC50 for COC1CCN(c2ccn(-c3ccc4nc(-c5cccnc5N)n(-c5ccc6c(c5)CC(F)[C@@H]6NC5CCN(C(=O)C6CC6)CC5)c4n3)n2)CC1 (stereo partly drawn) ?
0.00986

====

# tested.target: AKT1 WT (Homo sapiens, UniProt P31749)
# Construct: expressed in transfected cells; host or cells: HEK293
# Sequence (P31749 whole entry): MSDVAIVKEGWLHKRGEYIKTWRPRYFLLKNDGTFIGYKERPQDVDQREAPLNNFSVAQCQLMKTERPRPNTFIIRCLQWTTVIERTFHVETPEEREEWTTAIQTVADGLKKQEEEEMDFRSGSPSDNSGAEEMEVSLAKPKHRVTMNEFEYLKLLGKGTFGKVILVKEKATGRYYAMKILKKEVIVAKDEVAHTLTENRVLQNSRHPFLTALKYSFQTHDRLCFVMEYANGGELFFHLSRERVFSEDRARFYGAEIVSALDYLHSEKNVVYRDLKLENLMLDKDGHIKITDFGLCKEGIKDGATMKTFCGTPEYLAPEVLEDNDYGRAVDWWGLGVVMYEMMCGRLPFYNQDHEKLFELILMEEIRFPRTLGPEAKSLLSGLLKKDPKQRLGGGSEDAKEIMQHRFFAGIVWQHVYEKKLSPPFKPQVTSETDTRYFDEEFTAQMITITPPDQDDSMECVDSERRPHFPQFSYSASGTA
# method.summary: Live cell AKT1 WT target engagement by NanoBRET competitive probe displacement in HEK293 cells
# Type: binding
# experimental.conditions: NanoBRET live cell target engagement, HEK293 cells, 2 h at 37° C.; read-out: AKT1 WT IC50
Measured IC50 accompanies every entry in the list below.
A number alone suffices; assume µM.

// known answers, use as guide
Suppose we examine the molecule `Nc1ncccc1-c1nc2ccc(-n3cccn3)nc2n1-c1ccc2c(c1)CC[C@@H]2NC(=O)c1ccc(CF)nc1` ; what IC50 value has been reported?
0.0132

Bench note: what IC50 did `Nc1ncccc1-c1nc2ccc(-n3nccn3)nc2n1-c1ccc2c(c1)CC[C@@H]2NC(=O)c1cnc(C(F)F)cn1` show?
0.112

Which measured IC50 value corresponds to `CN(C)Cc1ccc(C(=O)N[C@H]2CCc3cc(-n4c(-c5cccnc5N)nc5ccc(-n6cccn6)nc54)ccc32)cn1` ?
0.0363

Quick one: IC50 of `CN[C@H]1CCc2cc(-n3c(-c4cccnc4N)nc4ccc(-n5cccn5)nc43)ccc21` ?
0.126

Requested field: IC50. Item: `Cn1ccc(CN[C@H]2CCc3cc(-n4c(-c5cccnc5N)nc5ccc(-n6cccn6)nc54)ccc32)n1`
0.121

Return reported IC50; argument: `Nc1ncccc1-c1nc2ccc(-n3cccn3)nc2n1-c1ccc2c(c1)CC[C@@H]2NC(=O)c1ccc2cccn2c1`
0.0179

We next turn to a different molecule, shown below.
Request the reported IC50 associated with `Cc1ncccc1C(=O)N[C@H]1CCc2cc(-n3c(-c4cccnc4N)nc4c(F)cc(-n5cccn5)nc43)ccc21`
0.0578
